Reference source: patent US20230125550A1

SYSTEM_NAME: T1, recombinant human CD123-Fc (human, UniProt P26951 19-305)
T1 construct: not shown: Fc part of CD123-Fc
T1 sequence: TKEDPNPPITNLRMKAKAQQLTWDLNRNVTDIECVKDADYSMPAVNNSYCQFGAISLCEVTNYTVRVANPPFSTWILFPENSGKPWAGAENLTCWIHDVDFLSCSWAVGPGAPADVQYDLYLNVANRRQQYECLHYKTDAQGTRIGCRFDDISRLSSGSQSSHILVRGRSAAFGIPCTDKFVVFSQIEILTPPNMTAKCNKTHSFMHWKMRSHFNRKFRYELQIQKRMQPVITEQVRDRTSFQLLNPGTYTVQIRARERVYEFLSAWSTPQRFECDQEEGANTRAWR
PROTOCOL_SUMMARY: phage ELISA, captured CD123-Fc
Listed below: ELISA_avg values for each entry.
Write it as a number; the unit ratio A450 target/IgG1-Fc goes unstated.

# example entries with known answers
[[record]]
binder = "SEQ ID NO: 505 (designed binder, D domain, on phage) MGSWFMFKQELAWIKEDLEALGGSEAELADFEWDIAEFEWDLQYYKGKGNPEVEALRKEAAAIRDELQAYRHN"
unit = "ratio A450 target/IgG1-Fc"
test_result = 7.2

[[record]]
binder = "SEQ ID NO: 494 (designed binder, D domain, on phage) MGSWDHFKNDLAWIKKHLEALGGSEAELAEFEAVIAYFELYLQGYKGKGNPEVEALRKEAAAIRDELQAYRHN"
unit = "ratio A450 target/IgG1-Fc"
test_result = 3.3

[[record]]
binder = "SEQ ID NO: 583 (designed binder, D domain, on phage) MGSWLEFEYRLDAIYDRLFALGGSEAELAAFEQDIADFEKYLQYYKGKGNPEVEALWEEADAIMWELFAYRHN"
unit = "ratio A450 target/IgG1-Fc"
test_result = 3.1

[[record]]
binder = "SEQ ID NO: 399 (designed binder, D domain, on phage) MGSWFEFWERLDAIEWRLWALGGSEAELAAFEKEIAAFESELQAYKGKGNPEVEELRSTAADIRRYLQAYRHN"
unit = "ratio A450 target/IgG1-Fc"
test_result = 3.4


With those in mind, consider the next binder.
Enquiry: What value of measured ELISA_avg is listed for SEQ ID NO: 445 (designed binder, D domain, on phage) MGSWMFFKEDLADIKWALEALGGSEAELAFFEEEIALFEQHLQQYKGKGNPEVEALRKEAAAIRDELQAYRHN ?
Return: 3.2
